The reported numbers originate from patent US9079886B2.

Could you please report measured melting point for the items listed next?
Answers are plain numbers, in °C.

Some compounds with known melting point results, for comparison:
COMPOUND: COc1cc(Nc2nc(N3C[C@@H](C)O[C@@H](C)C3)n(C(C)C)n2)ccc1-n1cnc(C)c1 [Compound 55]
RECORDED VALUE: 189.4
//
COMPOUND: COc1cc(Nc2nc(N3CCc4ccccc4C3)n(C)n2)ccc1-n1cnc(C)c1 [Compound 56]
RECORDED VALUE: 170.1
//
COMPOUND: Cn1nc(Nc2ccc(-c3ccnc(C(F)(F)F)c3)cc2)nc1-c1cccc(C(F)(F)F)c1 [Compound 178]
RECORDED VALUE: 179.2
//
COMPOUND: COc1cc(Nc2nc(N3CCCN(C(C)=O)CC3)n(C(C)C)n2)ccc1-c1ccnc(C)c1 [Compound 176]
RECORDED VALUE: 158.4
//
COMPOUND: Cc1cc(-c2ccc(Nc3nc(Oc4ccc(F)cc4C)n(C(C)C)n3)cc2)ccn1 [Compound 164]
RECORDED VALUE: 138.9
//
COMPOUND: COc1cc(Nc2nc(Oc3ccccc3Cl)n(C(C)C)n2)ccc1-n1cnc(C)n1 [Compound 4]
RECORDED VALUE: 202.7

Would you kindly look at the next entry?
Ask: What melting point value was documented for this compound, COc1cc(Nc2nc(Oc3cc(C(F)(F)F)ccc3F)n(C)n2)ccc1-c1ccnc(C)c1 [Compound 168] ?
Reply: 145.1
